Assay Target: UniProt:P04035
Sequence (whole entry): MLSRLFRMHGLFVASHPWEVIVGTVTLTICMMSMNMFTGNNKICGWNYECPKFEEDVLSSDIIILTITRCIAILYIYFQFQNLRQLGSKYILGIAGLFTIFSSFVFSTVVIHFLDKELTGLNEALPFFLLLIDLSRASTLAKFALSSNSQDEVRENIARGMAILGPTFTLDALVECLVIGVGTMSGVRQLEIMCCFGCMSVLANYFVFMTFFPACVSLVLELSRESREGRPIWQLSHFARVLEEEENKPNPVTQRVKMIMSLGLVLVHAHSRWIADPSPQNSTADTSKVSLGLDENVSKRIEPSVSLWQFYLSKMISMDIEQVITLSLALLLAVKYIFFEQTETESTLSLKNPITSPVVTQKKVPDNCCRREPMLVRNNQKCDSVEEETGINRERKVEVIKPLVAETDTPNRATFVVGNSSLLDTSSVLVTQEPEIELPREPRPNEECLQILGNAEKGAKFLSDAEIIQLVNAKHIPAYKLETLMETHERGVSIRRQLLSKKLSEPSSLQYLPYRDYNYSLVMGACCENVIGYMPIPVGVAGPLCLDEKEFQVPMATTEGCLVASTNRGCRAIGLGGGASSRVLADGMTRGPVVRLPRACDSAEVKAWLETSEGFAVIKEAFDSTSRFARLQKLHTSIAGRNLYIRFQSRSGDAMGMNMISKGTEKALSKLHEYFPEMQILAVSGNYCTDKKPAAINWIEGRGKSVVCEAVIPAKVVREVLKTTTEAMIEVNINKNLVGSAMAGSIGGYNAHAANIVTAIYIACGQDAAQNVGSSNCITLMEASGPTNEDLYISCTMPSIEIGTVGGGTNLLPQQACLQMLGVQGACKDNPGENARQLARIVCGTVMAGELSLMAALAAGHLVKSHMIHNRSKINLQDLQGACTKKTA
Experiment: Inhibition of HMG-CoA reductase compared to mevinolin.
Format: functional
# Relative potency annotations

Here are 3 compounds together with their reported answers.
>  <Compound>
Cc1nc2ccccc2c(-c2ccccc2)c1OCC(O)C[C@@H](O)CC(=O)O (stereo partly specified)

>  <Relative potency>
< 1

$$$$
>  <Compound>
CC(C)c1cc(SC(C)(C)Sc2cc(-c3ccc(F)cc3)c(OCC(O)C[C@@H](O)CC(=O)[O-])c(C(C)C)c2)cc(-c2ccc(F)cc2)c1[O-].[Na+].[Na+] (stereo partly specified)

>  <Relative potency>
< 3

$$$$
>  <Compound>
CC(C)c1cc(SC(C)(C)Sc2cc(-c3ccc(F)cc3)c(OC[C@H](O)C[C@@H](O)CC(=O)[O-])c(C(C)C)c2)cc(-c2ccc(F)cc2)c1OC[C@H](O)C[C@@H](O)CC(=O)[O-].[Na+].[Na+]

>  <Relative potency>
< 5

$$$$

**Q:** Quick check: Relative potency of Cc1c(OCC(O)C[C@@H](O)CC(=O)O)c(C(c2ccc(F)cc2)c2ccc(F)cc2)cc2ccccc12 (stereo partly specified) ?
**A:** < 1

**Q:** What value of Relative potency has been reported for the following compound? CCC(C)(C)C(=O)NC(c1cc(C)cc(C)c1OCC(O)C[C@@H](O)CC(=O)O)C1CCCCC1 (stereo in doubt; 11x)
**A:** < 1

**Q:** Form field: reported Relative potency of CCC(C)(C)OC(=O)C(c1cc(C)cc(C)c1OCC(O)C[C@@H](O)CC(=O)O)C1CCCCC1 (stereo in doubt; 11r)
**A:** < 1

----------
Organism: Rattus norvegicus
Experiment: Compound was tested for inhibition of microsomal lipid peroxidation and the potency relative to terbufucine was determined
Type: functional
Measurement Type: Relative potency

>  <Compound>
CC(C)c1c(O)c(C(C)C)c(C(C)C)c(OCC(O)C[C@@H](O)CC(=O)[O-])c1-c1ccc(F)cc1.[Na+] (some centres undefined)

>  <Relative potency>
< 0.1

$$$$
>  <Compound>
CC(C)c1cc(Sc2ccc(F)cc2)cc(-c2ccc(F)cc2)c1OCC(O)C[C@@H](O)CC(=O)[O-].[Na+] (some centres undefined)

>  <Relative potency>
< 0.1

$$$$
>  <Compound>
CC(=O)[O-].CC(C)c1c(OC[C@@H](O)C[C@@H](O)CC(=O)[O-])c(C(C)C)c(C(C)C)c(O)c1-c1ccc(F)cc1.[Na+].[Na+]

>  <Relative potency>
< 0.1

$$$$

// next item, Relative potency requested
**Q:** Entry CC(C)c1cc(SC(C)(C)Sc2cc(-c3ccc(F)cc3)c(OC[C@H](O)C[C@@H](O)CC(=O)[O-])c(C(C)C)c2)cc(-c2ccc(F)cc2)c1OC[C@H](O)C[C@@H](O)CC(=O)[O-].[Na+].[Na+] : reported Relative potency = ?
**A:** < 0.1

----------
Assay Target: 3-hydroxy-3-methylglutaryl-coenzyme A reductase (Homo sapiens, UniProt P04035)
Sequence (P04035 whole entry): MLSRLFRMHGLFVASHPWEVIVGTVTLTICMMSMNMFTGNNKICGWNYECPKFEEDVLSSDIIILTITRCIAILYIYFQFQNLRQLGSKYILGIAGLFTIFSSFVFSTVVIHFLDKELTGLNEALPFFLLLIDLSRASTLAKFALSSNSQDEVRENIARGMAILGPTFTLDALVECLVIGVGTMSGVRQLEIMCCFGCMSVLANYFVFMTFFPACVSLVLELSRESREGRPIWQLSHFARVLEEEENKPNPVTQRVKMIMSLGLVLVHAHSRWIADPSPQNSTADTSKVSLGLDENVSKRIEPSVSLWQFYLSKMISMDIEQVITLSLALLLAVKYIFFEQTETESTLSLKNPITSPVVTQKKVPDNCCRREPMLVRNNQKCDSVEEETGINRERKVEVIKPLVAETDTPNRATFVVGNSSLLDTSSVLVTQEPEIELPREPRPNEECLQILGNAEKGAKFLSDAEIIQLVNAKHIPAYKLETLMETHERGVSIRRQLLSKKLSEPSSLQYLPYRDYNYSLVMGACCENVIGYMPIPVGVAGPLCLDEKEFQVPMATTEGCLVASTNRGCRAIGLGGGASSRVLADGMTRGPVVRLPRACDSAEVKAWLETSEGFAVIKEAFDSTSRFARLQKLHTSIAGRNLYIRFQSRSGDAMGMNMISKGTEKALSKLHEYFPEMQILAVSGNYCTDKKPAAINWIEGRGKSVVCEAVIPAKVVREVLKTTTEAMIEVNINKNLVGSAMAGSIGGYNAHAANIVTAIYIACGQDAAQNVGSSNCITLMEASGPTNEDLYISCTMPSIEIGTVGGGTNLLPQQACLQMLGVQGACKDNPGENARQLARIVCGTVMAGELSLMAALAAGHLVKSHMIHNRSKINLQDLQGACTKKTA
Experiment: Inhibition of the incorporation of sodium [14C]acetate into cholesterol in HEP G2 cells.
pIC50: −log10 of the molar value.
Measurement Type: pIC50

These solved cases illustrate the format of a correct answer.
>  <Molecule>
Cc1c(OCC(O)C[C@@H](O)CC(=O)O)c(-c2ccc(F)cc2)nc2ccccc12 (stereo partly drawn)

>  <Observed Result>
< 5.30

$$$$
>  <Molecule>
CC(C)c1cc(SC(C)(C)Sc2cc(-c3ccc(F)cc3)c(OC[C@H](O)C[C@@H](O)CC(=O)[O-])c(C(C)C)c2)cc(-c2ccc(F)cc2)c1OC[C@H](O)C[C@@H](O)CC(=O)[O-].[Na+].[Na+]

>  <Observed Result>
< 6.00

$$$$

// next item, pIC50 requested
**Q:** Requested read-out: pIC50. Entry: Cc1nc2ccccc2c(-c2ccccc2)c1OCC(O)C[C@@H](O)CC(=O)O (stereo partly drawn)
**A:** < 5.30

----------
Assay Target: 3-hydroxy-3-methylglutaryl-coenzyme A reductase (Rattus norvegicus, UniProt P51639)
Sequence (P51639 whole entry): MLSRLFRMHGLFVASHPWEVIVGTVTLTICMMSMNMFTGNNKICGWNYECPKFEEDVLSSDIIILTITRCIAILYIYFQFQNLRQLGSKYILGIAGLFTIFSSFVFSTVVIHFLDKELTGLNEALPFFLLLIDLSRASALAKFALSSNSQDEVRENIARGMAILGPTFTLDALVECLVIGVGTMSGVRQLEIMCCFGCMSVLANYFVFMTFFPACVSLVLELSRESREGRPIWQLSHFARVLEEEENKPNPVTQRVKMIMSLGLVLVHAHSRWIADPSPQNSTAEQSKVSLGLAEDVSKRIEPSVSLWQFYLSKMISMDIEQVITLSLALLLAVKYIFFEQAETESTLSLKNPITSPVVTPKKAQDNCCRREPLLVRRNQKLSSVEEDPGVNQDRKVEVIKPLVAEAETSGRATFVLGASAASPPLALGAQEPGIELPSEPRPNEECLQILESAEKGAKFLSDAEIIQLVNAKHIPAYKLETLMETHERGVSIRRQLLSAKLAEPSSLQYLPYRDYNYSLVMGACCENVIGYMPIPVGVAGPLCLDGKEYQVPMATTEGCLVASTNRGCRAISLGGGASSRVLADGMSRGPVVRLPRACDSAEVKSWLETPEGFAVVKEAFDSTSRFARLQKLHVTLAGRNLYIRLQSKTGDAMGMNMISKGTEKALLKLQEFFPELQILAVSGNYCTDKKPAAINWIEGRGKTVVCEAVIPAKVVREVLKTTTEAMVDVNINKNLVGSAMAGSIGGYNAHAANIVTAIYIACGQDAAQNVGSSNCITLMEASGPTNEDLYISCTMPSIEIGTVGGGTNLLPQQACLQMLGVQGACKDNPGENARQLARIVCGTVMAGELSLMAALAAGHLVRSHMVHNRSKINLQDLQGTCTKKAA
Experiment: In vitro inhibition of HMG-CoA reductase in solubilized rat liver.
Measurement Type: IC50 (nM)

Below are worked cases with known answers.
>  <Compound>
CC(C)c1cc(SC(C)(C)Sc2cc(-c3ccc(F)cc3)c(OC[C@H](O)C[C@@H](O)CC(=O)[O-])c(C(C)C)c2)cc(-c2ccc(F)cc2)c1OC[C@H](O)C[C@@H](O)CC(=O)[O-].[Na+].[Na+]

>  <Assay Target>
3-hydroxy-3-methylglutaryl-coenzyme A reductase (Rattus norvegicus, UniProt P51639)

>  <Measurement Type>
IC50

>  <Observed Result>
10

$$$$
>  <Compound>
CC(C)c1c(OCC(O)C[C@@H](O)CC(=O)O)c(C(c2ccc(F)cc2)c2ccc(F)cc2)cc2ccccc12 (some centres undefined)

>  <Assay Target>
3-hydroxy-3-methylglutaryl-coenzyme A reductase (Rattus norvegicus, UniProt P51639)

>  <Measurement Type>
IC50

>  <Observed Result>
380

$$$$

P. Cc1cc(C)c(OCC(O)C[C@@H](O)CC(=O)O)c(C(c2ccc(F)cc2)c2cccc(C(F)(F)F)c2)c1 (some centres undefined)
Q. CCC(C)(C)C(=O)NC(c1cc(C)cc(C)c1OCC(O)C[C@@H](O)CC(=O)O)C1CCCCC1 (stereo in doubt; 11x)
**Q:** Lab note: check whether P or Q shows the higher recorded IC50. Refer to your chosen entry by its label in the reply.
**A:** Q
(Q: 470 nM, P: 90 nM)
